B1: MYBL2 (parent)
chain: IAKHLKGRLGKQCRERWHNHLNPE

Variants of: B1
protocol: protein stability index of a GFP-peptide fusion (GPS, HEK-293T) (PSI 1-6); higher = more stable;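 also: lentivirally expressed fusions sorted by FACS into six bins by GFP to DsRed ratio, PSI derived from sequencing read proportions per bin multiplied by bin number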
assayContext: c terminus: a fixed tail appended
Below, each of the variants is paired with its reported protein stability index value.

# mutantName, protein stability index
data = [
    ("R16E", 2.58),
    ("H18D", 1.85),
    ("G10L", 1.94),
    ("R16Q", 2.12),
    ("H20L", 2.42),
    ("R14D", 2.56),
    ("G7A", 2.94),
    ("G7I", 2.31),
    ("N22I", 2.09),
    ("H18I", 2.73),
    ("W17D", 2.4),
    ("L21P", 2.97),
    ("L9Q", 2.06),
    ("G7D", 2.61),
    ("K6G", 1.67),
    ("I1R", 2.1),
    ("H4T", 1.87),
    ("N19K", 1.72),
    ("C13R", 2.3),
    ("C13E", 2.68),
    ("L9I", 1.43),
    ("G10I", 2.44),
]
